Test system: OVCAR-4 ovarian
assay: NCI tumour cell line growth inhibition, 48 h; in the data active = GI50 below about 0.43 µM; inactive = the rest
Possible outcomes: yes for active, no for inactive

{"columns": ["compound", "label-value"],
 "data": [
  ["C=C(C)C1CC=C(C)CC1 (stereo unspecified)", "no"],
  ["Cc1ccc(/C=C/C(=N/N=C(N)N)c2ccccc2)cc1", "no"],
  ["CCN(Cc1ccccc1Cl)c1ccc(CO)c(Cl)c1", "yes"],
  ["CC(=O)[CH-]C(=O)c1ccccc1.CC(=O)[CH-]C(=O)c1ccccc1.CC[C@H](/C=C/C(C)[C@H]1CCC2[C@@H]3CC=C4C[C@@H]([O-])CC[C@]4(C)C3CC[C@@]21C)C(C)C.CC[O-].[Ti+4] (stereo partly specified)", "no"],
  ["Nc1nc2c(nnn2C2OC(CO)C(O)C2O)c(=O)[nH]1 (stereo unspecified)", "no"],
  ["NC1CCC(Nc2nc(NCc3cc(Cl)ccc3O)c3ncn(C4CCCC4)c3n2)CC1 (stereo unspecified)", "yes"],
  ["C=C1CCC2C3(C)COC(c4c(OC)cccc4OC)OC3CCC2(C)C1C/C=C1/C(=O)OCC1O (stereo unspecified)", "no"],
  ["O=c1c2c(c3ccccc3n1-c1ccccc1)NC(=S)NC2c1ccc(Cl)cc1 (stereo unspecified)", "no"],
  ["CCCCCCC/C=C/[C@H]1O[C@]2(O)C(=O)C=C3C[C@@H](O[C@@H]4O[C@H](CO)[C@@H](O)C(O)[C@@H]4O)C[C@@H]3[C@H]2C=C1C (stereo partly specified)", "no"],
  ["NCCCCCCCCCCCn1c2c(c3ccccc3c1=O)C(=O)c1ccccc1-2", "no"],
  ["C[N+](C)(CCCCCC[N+](C)(C)CCCN1C(=O)c2cc3ccccc3cc2C1=O)CCCN1C(=O)c2cc3ccccc3cc2C1=O", "no"],
  ["CC(=O)[CH-]C(=O)c1ccccc1.CC(=O)[CH-]C(=O)c1ccccc1.CC1(C)OCC(C2OC3OC(C)(C)OC3C2[O-])O1.CC1(C)OCC(C2OC3OC(C)(C)OC3C2[O-])O1.[Ti+4] (stereo unspecified)", "no"],
  ["O=c1c2cccc(F)c2sc2c(N3CCNCC3)nc3ccccc3c12", "no"],
  ["C1COCCOCCOCCOCCOCCO1.[Cl][Sn]([Cl])([c]1ccccc1)[c]1ccccc1", "no"],
  ["Nc1ccccc1NC(=O)c1ccc(CN2CCC/C(=C\\c3ccccn3)C2=O)cc1", "no"],
  ["O=C(c1ccco1)c1c(C(F)(F)F)nc2ccc(C(F)(F)F)cc2[n+]1[O-]", "no"]
]}

Origin of measurements: PubChem BioAssay (NCI)
